These entries and their values trace back to patent US5075287A.

Each item that follows carries a reported Anti HA serum antigen value (average value ± S.D.).
- Test system: influenza HA vaccine (B/Nagasaki/1/87 strain)
- Type: in vivo, female CDF1 mice
- condition description: Experiment 2; 5 W (after secondary stimulation at 3 weeks); 8000-fold dilution
Unit O.D 415 nm implied. Number only.

compound	measured on	scale unit	observed measurement
CCCCCCCCCCCCCCCCCC(=O)OC[C@H]1O[C@H](OC(=O)C[C@@H](CCCCCCCCCCC)OC(=O)CCCCCCCCCCCCCCC)[C@H](NC(C)=O)[C@@H](O[C@H](C)C(=O)N[C@@H](C)C(=O)N[C@H](CCC(=O)OC)C(N)=O)[C@@H]1O [Example 18]	influenza HA vaccine (B/Nagasaki/1/87 strain)	O.D 415 nm	0.360

Req: Return value of Anti HA serum antigen value (average value ± S.D.) for input CCCCCCCCCCCCCC(=O)O[C@H](CCCCCCCCCCC)CC(=O)O[C@H]1O[C@H](CO)[C@@H](O)[C@H](O[C@H](C)C(=O)N[C@@H](C)C(=O)N[C@H](CCC(=O)OC)C(N)=O)[C@H]1NC(C)=O [Example 25] , no commentary.
Resp: 0.719

====

- System: L-1210 mouse leukemia cells
- test method notes: Activation of macrophages (growth inhibition of tumor cells by intraperitoneal macrophages of treated mice, MTT assay)
- Format: cell-based
- condition description: macrophages taken 3 days after i.p. 0.2 ml of 500 μg/ml, macrophage:L-1210 20:1, 72 hours
Each item that follows carries a reported Growth inhibitory ratio of L-1210 mouse leukemia cells.
Unit % implied. Number only.

CCCCCCCCCCCCCC(=O)O[C@H](CCCCCCCCCCC)CC(=O)O[C@H]1O[C@H](CO)[C@@H](O)[C@H](O[C@H](C)C(=O)N[C@@H](C)C(=O)N[C@H](CCC(=O)OC)C(N)=O)[C@H]1NC(C)=O 42.6
CCCCCCCCCCCCCCC(CCCCCCCCCCCCCC)C(=O)O[C@H]1O[C@H](COC(=O)CCCCCCCCC)[C@@H](O)[C@H](O[C@H](C)C(=O)N[C@@H](C)C(=O)N[C@H](CCC(=O)OC)C(N)=O)[C@H]1NC(C)=O 57.8

Req: Return reported Growth inhibitory ratio of L-1210 mouse leukemia cells for target or system L-1210 mouse leukemia cells, item CCCCCCCCCCCCCC(=O)OC[C@H]1O[C@@H](SC(=O)C[C@@H](CCCCCCCCCCC)OC(=O)CCCCCCCCCCCCC)[C@H](NC(C)=O)[C@@H](O[C@H](C)C(=O)N[C@@H](C)C(=O)N[C@H](CCC(=O)OC)C(N)=O)[C@@H]1O .
Resp: 87.5

Req: Return reported Growth inhibitory ratio of L-1210 mouse leukemia cells for target or system L-1210 mouse leukemia cells, item CCCCCCCCCCCCCCC(CCCCCCCCCCCCCC)C(=O)S[C@@H]1O[C@H](COC(=O)CCCCCCCCC)[C@@H](O)[C@H](O[C@H](C)C(=O)N[C@@H](C)C(=O)N[C@H](CCC(=O)OC)C(N)=O)[C@H]1NC(C)=O .
Resp: 57.9

====

- Tested on: influenza HA vaccine (B/Nagasaki/1/87 strain)
- Format: in vivo, female CDF1 mice
- condition description: Experiment 2; 1 W; 8000-fold dilution
attribute measured: Anti HA serum antigen value (average value ± S.D.) (O.D 415 nm)
Unit O.D 415 nm implied. Number only.

CCCCCCCCCCCCCCCCCC(=O)OC[C@H]1O[C@H](OC(=O)C[C@@H](CCCCCCCCCCC)OC(=O)CCCCCCCCCCCCCCC)[C@H](NC(C)=O)[C@@H](O[C@H](C)C(=O)N[C@@H](C)C(=O)N[C@H](CCC(=O)OC)C(N)=O)[C@@H]1O 0

Req: Return reported Anti HA serum antigen value (average value ± S.D.) for target or system influenza HA vaccine (B/Nagasaki/1/87 strain), item CCCCCCCCCCCCCCCCCC(=O)OC[C@H]1O[C@H](OC(=O)C[C@@H](CCCCCCCCCCC)OC(=O)CCCCCCCCCCCCCCCCC)[C@H](NC(C)=O)[C@@H](O[C@H](C)C(=O)N[C@@H](C)C(=O)N[C@H](CCC(=O)OC)C(N)=O)[C@@H]1O .
Resp: 0.001

====

Each item that follows carries a reported Growth inhibitory ratio of L-1210 mouse leukemia cells.
- Tested on: L-1210 mouse leukemia cells
- test method notes: Activation of macrophages (growth inhibition of tumor cells by intraperitoneal macrophages of treated mice, MTT assay)
- Format: cell-based
- condition description: macrophages taken 3 days after i.p. 0.2 ml of 500 μg/ml, macrophage:L-1210 20:1, 72 hours
Record the result as number plus unit.

Solved entries (count: 2):
CCCCCCCCCCCCCC(=O)O[C@H](CCCCCCCCCCC)CC(=O)O[C@H]1O[C@H](COC(=O)CCCCCCCCC)[C@@H](O)[C@H](O[C@H](C)C(=O)N[C@@H](C)C(=O)N[C@H](CCC(=O)OC)C(N)=O)[C@H]1NC(C)=O 59.7%
CCCCCCCCCCCCCC(=O)OC[C@H]1O[C@H](OC(=O)C[C@@H](CCCCCCCCCCC)OC(=O)CCCCCCCCCCCCC)[C@H](NC(C)=O)[C@@H](O[C@H](C)C(=O)N[C@@H](C)C(=O)N[C@H](CCC(=O)OC)C(N)=O)[C@@H]1O 79.0%

Now turn to the next molecule.
Req: Return value of Growth inhibitory ratio of L-1210 mouse leukemia cells for input CCCCCCCCCCCCCCC(CCCCCCCCCCCCCC)C(=O)O[C@H]1O[C@H](COC(=O)CCCCCCCCCCCCC)[C@@H](O)[C@H](O[C@H](C)C(=O)N[C@@H](C)C(=O)N[C@H](CCC(=O)OC)C(N)=O)[C@H]1NC(C)=O , no commentary.
Resp: 63.0%

====

- Tested on: influenza HA vaccine (B/Nagasaki/1/87 strain)
- Format: in vivo, female CDF1 mice
- condition description: Experiment 2; 3 W; 8000-fold dilution
attribute measured: Anti HA serum antigen value (average value ± S.D.) (O.D 415 nm)
Unit O.D 415 nm implied. Number only.

Solved entries (count: 2):
CCCCCCCCCCCCCCCC(=O)O[C@H](CCCCCCCCCCC)CC(=O)S[C@@H]1O[C@H](CO)[C@@H](O)[C@H](O[C@H](C)C(=O)N[C@@H](C)C(=O)N[C@H](CCC(=O)OC)C(N)=O)[C@H]1NC(C)=O 0.187
CCCCCCCCCCCCCC(=O)O[C@H](CCCCCCCCCCC)CC(=O)O[C@H]1O[C@H](CO)[C@@H](O)[C@H](O[C@H](C)C(=O)N[C@@H](C)C(=O)N[C@H](CCC(=O)OC)C(N)=O)[C@H]1NC(C)=O 0.149

Now turn to the next compound.
Req: Return reported Anti HA serum antigen value (average value ± S.D.) for target or system influenza HA vaccine (B/Nagasaki/1/87 strain), item CCCCCCCCCCCCCCCCCC(=O)OC[C@H]1O[C@H](OC(=O)C[C@@H](CCCCCCCCCCC)OC(=O)CCCCCCCCCCCCCCC)[C@H](NC(C)=O)[C@@H](O[C@H](C)C(=O)N[C@@H](C)C(=O)N[C@H](CCC(=O)OC)C(N)=O)[C@@H]1O .
Resp: 0.075

====

Each item that follows carries a reported Anti HA serum antigen value (average value ± S.D.).
- System: influenza HA vaccine (B/Nagasaki/1/87 strain)
- Assay type: in vivo, female CDF1 mice
- condition description: Experiment 2; 5 W (after secondary stimulation at 3 weeks); 8000-fold dilution
Unit O.D 415 nm implied. Number only.

molecule	observed measurement
CCCCCCCCCCCCCCCCCCCCCCCC(=O)O[C@H](CCCCCCCCCCC)CC(=O)S[C@@H]1O[C@H](COC(=O)CCCCCCCCCCCCCCCCC)[C@@H](O)[C@H](O[C@H](C)C(=O)N[C@@H](C)C(=O)N[C@H](CCC(=O)OC)C(N)=O)[C@H]1NC(C)=O [Example 28]	0.779

Now turn to the next molecule.
Req: Return reported Anti HA serum antigen value (average value ± S.D.) for target or system influenza HA vaccine (B/Nagasaki/1/87 strain), item CCCCCCCCCCCCCCCCCC(=O)OC[C@H]1O[C@@H](SC(=O)C[C@@H](CCCCCCCCCCC)OC(=O)CCCCCCCCCCCCCCC)[C@H](NC(C)=O)[C@@H](O[C@H](C)C(=O)N[C@@H](C)C(=O)N[C@H](CCC(=O)OC)C(N)=O)[C@@H]1O [Example 20] .
Resp: 0.857

====

Each item that follows carries a reported Anti-HBs IgG antibody level in serum (ELISA absorbance at 415 nm).
- Tested on: hepatitis B virus surface antigen (HBs)
- test method notes: Hepatitis-vaccine enhancing activity (adjuvant activity): anti-HBs IgG in mouse serum by ELISA
- Assay type: in vivo, female CDF1 mice
- condition description: Experiment 1; 1 W after i.p. administration; 5000-fold dilution; compound in lipidmicrosphere + HBs
Unit O.D 415 nm implied. Number only.

Solved entries (count: 6):
molecule	observed measurement
CCCCCCCCCCCCCC(=O)OC[C@H]1O[C@@H](SC(=O)C[C@@H](CCCCCCCCCCC)OC(=O)CCCCCCCCCCCCC)[C@H](NC(C)=O)[C@@H](O[C@H](C)C(=O)N[C@@H](C)C(=O)N[C@H](CCC(=O)OC)C(N)=O)[C@@H]1O [Example 15]	0
CCCCCCCCCCCCCCCCCC(=O)OC[C@H]1O[C@H](OC(=O)C[C@@H](CCCCCCCCCCC)OC(=O)CCCCCCCCCCCCC)[C@H](NC(C)=O)[C@@H](O[C@H](C)C(=O)N[C@@H](C)C(=O)N[C@H](CCC(=O)OC)C(N)=O)[C@@H]1O [Example 13]	0
CCCCCCCCCCCCCC(=O)OC[C@H]1O[C@H](OC(=O)C[C@@H](CCCCCCCCCCC)OC(=O)CCCCCCCCCCCCC)[C@H](NC(C)=O)[C@@H](O[C@H](C)C(=O)N[C@@H](C)C(=O)N[C@H](CCC(=O)OC)C(N)=O)[C@@H]1O [Example 12]	0.007
CCCCCCCCCCCCCCCCCC(=O)OC[C@H]1O[C@@H](SC(=O)C(CCCCCCCCCCCCCC)CCCCCCCCCCCCCC)[C@H](NC(C)=O)[C@@H](O[C@H](C)C(=O)N[C@@H](C)C(=O)N[C@H](CCC(=O)OC)C(N)=O)[C@@H]1O [Example 10]	0
CCCCCCCCCCCCCCC(CCCCCCCCCCCCCC)C(=O)S[C@@H]1O[C@H](COC(=O)CCCCCCCCCCCCC)[C@@H](O)[C@H](O[C@H](C)C(=O)N[C@@H](C)C(=O)N[C@H](CCC(=O)OC)C(N)=O)[C@H]1NC(C)=O [Example 9]	0.014
CCCCCCCCCCCCCCC(CCCCCCCCCCCCCC)C(=O)O[C@H]1O[C@H](COC(=O)CCCCCCCCCCCCC)[C@@H](O)[C@H](O[C@H](C)C(=O)N[C@@H](C)C(=O)N[C@H](CCC(=O)OC)C(N)=O)[C@H]1NC(C)=O [Example 6]	0

Now turn to the next molecule.
Req: Return reported Anti-HBs IgG antibody level in serum (ELISA absorbance at 415 nm) for target or system hepatitis B virus surface antigen (HBs), item CCCCCCCCCCCCCCC(CCCCCCCCCCCCCC)C(=O)S[C@@H]1O[C@H](COC(=O)CCCCCCCCC)[C@@H](O)[C@H](O[C@H](C)C(=O)N[C@@H](C)C(=O)N[C@H](CCC(=O)OC)C(N)=O)[C@H]1NC(C)=O [Example 8] .
Resp: 0
